Entry source: patent US9695461B2

# Tested on: protease according to SEQ ID NO: 3
# experimental-protocol: Relative proteolytic activity with reversible inhibitor in liquid surfactant preparation (Example 1)
# Assay type: biochemical
# assay-context: Table 1; boric acid in amount inhibiting starting enzyme by 20-40%; 50% conc. surfactant preparation, 0.92 mM AAPF, 25° C., pH 8.6; relative to same protease without inhibitor
property: relative activity, Boric acid (%)

molecule	property	quantitative-result
S166V: protease of SEQ ID NO: 3 with amino acid substitution S166V in the count according to SEQ ID NO: 1 (protein, listed as Bacillus lentus) AQSVPWGISRVQAPAAHNRGLTGSGVKVAVLDTGISTHPDLNIRGGASFVPGEPSTQDGNGHGTHVAGTIAALNNSIGVLGVAPSAELYAVKVLGADGEGAISSIAQGLEWAGNNGMHVANLSLGSPSPSATLEQAVNSATSRGVLVVAASGNSGASSIVYPARYANAMAVGATDQNNNRASFSQYGAGLDIVAPGVNVQSTYPGSTYASLNGTSMATPHVAGAAALVKQKNPSWSNVQIRNHLKNTATSLGSTNLYGSGLVNAEAATR	relative activity, Boric acid	59
